All values here come from patent US20220315578A1.

Recorded measurements of BRD9 Deg Amax %, one per entry
Biological target: BRD9-GFP (Homo sapiens, UniProt Q9H8M2)
Construct: CHYSEL (2A cis-acting hydrolase element) remnant after GFP; mCherry is split off as a separate protein (C); expressed in transfected cells; host or cells: HEK293A cells (Invitrogen R70507), lentiviral transduction with pLenti6-BRD9-GFP-CHYSEL-mCherry, blasticidin selection
Sequence (Q9H8M2 1-597): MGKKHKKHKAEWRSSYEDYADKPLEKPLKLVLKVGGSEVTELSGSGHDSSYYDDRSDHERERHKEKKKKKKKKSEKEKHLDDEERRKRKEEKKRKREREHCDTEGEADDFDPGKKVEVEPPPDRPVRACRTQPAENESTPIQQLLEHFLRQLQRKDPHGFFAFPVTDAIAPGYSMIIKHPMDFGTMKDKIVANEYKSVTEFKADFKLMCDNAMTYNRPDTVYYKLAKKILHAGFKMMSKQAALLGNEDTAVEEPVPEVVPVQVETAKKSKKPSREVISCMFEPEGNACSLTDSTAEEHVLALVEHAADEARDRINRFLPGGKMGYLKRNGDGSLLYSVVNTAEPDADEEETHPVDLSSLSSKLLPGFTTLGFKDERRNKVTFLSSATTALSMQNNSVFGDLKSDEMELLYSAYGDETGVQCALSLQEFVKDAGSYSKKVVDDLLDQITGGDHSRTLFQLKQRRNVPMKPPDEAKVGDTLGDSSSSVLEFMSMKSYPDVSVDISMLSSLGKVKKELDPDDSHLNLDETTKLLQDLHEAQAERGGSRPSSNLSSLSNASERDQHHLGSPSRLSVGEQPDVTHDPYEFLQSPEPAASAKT
Test: BRD9-GFP protein abundance flow cytometry assay in HEK293A cells
Assay type: cell-based
Conditions: HEK293A-BRD9-GFP-CHYSEL-mCherry cells, 24 h; % protein remaining at the concentration at which maximum degradation is seen
Measurement kind: BRD9 Deg Amax % (%)

>>> value_reported("COc1cc(-c2cc(C)c(=O)n(C)c2)c(OC)cc1CN1CCC(OC2CCN(C(=O)COc3ccc(N4CCC(=O)NC4=O)cc3)CC2)CC1 [Compound A7]")
21.30
>>> value_reported("COc1cc(-c2cn(C)c(=O)c(C)c2C)ccc1CN1CCN(CC2CCN(C(=O)c3ccc(OC)c(N4CCC(=O)NC4=O)c3)CC2)CC1 [Compound A13]")
18.05
>>> value_reported("CCCn1cc(-c2cc(OC)c(CCN3CC[C@@H](OC4CCN(C(=O)c5ccc(Cl)c(N6CCC(=O)NC6=O)c5)CC4)[C@H](F)C3)c(OC)c2)c(C)c(C)c1=O [Compound E55]")
18.12
>>> value_reported("CCCCn1cc(-c2cc(OC)c(CCN3CCC(OC4CCN(CCn5cccc(CN6CCC(=O)NC6=O)c5=O)CC4)CC3)c(OC)c2)c2ccncc2c1=O [Compound D4]")
16.34
>>> value_reported("COc1cc(-c2cn(C)c(=O)c3cnccc23)ccc1OCC1CCN(CC2CCN(C(=O)c3ccc(OC)c(N4CCC(=O)NC4=O)c3)CC2)CC1 [Compound A5]")
18.64
>>> value_reported("COc1cc(-c2cn(C)c(=O)c3cnccc23)c(OC)cc1CCN1CCC(OC2CCN(CCn3cccc(CN4CCC(=O)NC4=O)c3=O)CC2)CC1 [Compound C3]")
17.50
>>> value_reported("CCCCn1cc(-c2cc(F)c(CCN3CCC(OC4CCN(C(=O)c5ccc(Cl)c(N6CCC(=O)NC6=O)c5)CC4)CC3)c(OC)c2)c2ccncc2c1=O [Compound E53]")
16.11
